Biological target: receptor EGFP-NK2R (UniProt P16610)
Sequence (P16610 1-390): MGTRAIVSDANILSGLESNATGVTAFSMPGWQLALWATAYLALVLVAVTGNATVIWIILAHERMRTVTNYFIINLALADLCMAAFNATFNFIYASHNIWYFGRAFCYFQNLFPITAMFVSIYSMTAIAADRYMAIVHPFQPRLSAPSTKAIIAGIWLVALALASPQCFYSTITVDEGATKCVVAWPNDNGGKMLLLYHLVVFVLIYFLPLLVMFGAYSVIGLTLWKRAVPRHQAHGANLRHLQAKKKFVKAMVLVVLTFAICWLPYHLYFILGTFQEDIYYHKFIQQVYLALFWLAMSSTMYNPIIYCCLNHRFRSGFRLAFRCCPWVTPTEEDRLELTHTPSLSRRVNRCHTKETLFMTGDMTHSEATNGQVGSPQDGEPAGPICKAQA
Assay: Dissociation kinetics of NKA-Bo bound to EGFP-NK2R by fluorescence energy transfer
Assay type: binding
Design: % al (max): maximum value observed for the increase in amplitude of the rapid dissociation rate; ns = n; other: 20 nM of NK; % al (at 10 μM); other: compou; fused on or other part: EGFP fused to the receptor as FRET donor
Settings: read-out: EC50 (μM): concentration of compound causing a 50% increase (relative to the maximum value) in the percentage of the amplitude of the rapid dissociation rate; Table 1; dissociation of NKA-Bo from EGFP-NK2R; ns = not significant
Listed here are molecules together with their documented EC50.

compound-string | assay-system | EC50
N#CCN(Cc1ccc(N)cc1)Cc1cccc2ccccc12 | receptor EGFP-NK2R (UniProt P16610) | 20 to 30 µM
N#CCN(Cc1ccc(N)cc1)Cc1ccc2ccccc2c1 | receptor EGFP-NK2R (UniProt P16610) | 38 to 44 µM
NC(=O)CN(Cc1ccc2ccccc2c1)c1ccccc1 | receptor EGFP-NK2R (UniProt P16610) | > 50 µM

----------
Target: receptor EGFP-NK2R (UniProt P16610)
Sequence (P16610 1-390): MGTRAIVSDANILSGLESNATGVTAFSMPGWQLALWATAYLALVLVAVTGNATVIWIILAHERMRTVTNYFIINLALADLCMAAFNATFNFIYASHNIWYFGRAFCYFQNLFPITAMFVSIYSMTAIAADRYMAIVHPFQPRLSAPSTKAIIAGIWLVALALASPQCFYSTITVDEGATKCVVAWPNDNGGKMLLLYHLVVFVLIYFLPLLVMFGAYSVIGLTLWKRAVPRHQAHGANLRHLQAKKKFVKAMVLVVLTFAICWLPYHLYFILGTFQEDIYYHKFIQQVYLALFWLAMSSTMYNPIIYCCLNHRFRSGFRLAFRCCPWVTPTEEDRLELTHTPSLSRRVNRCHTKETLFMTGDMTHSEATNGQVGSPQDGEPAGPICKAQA
Assay: Dissociation kinetics of NKA-Bo bound to EGFP-NK2R by fluorescence energy transfer
Assay type: binding
Design: % al (max): maximum value observed for the increase in amplitude of the rapid dissociation rate; ns = n; other: 20 nM of NK; % al (at 10 μM); other: compou; fused on or other part: EGFP fused to the receptor as FRET donor
Conditions: read-out: EC50 (μM): concentration of compound causing a 50% increase (relative to the maximum value) in the percentage of the amplitude of the rapid dissociation rate; Table 1; dissociation of NKA-Bo from EGFP-NK2R; ns = not significant
readout-label: EC50

compound | reported
N#CCN(Cc1ccc(Cl)cc1)Cc1ccc2ccccc2c1 | 5 to 10 µM
C#CCN(Cc1ccccc1)Cc1ccc2ccccc2c1 | 20 to 30 µM
N#CCN(Cc1ccccc1)c1ncc(-c2ccccc2)s1 | 1 to 20 µM
N#CCN(Cc1ccc(Cl)c(Cl)c1)Cc1ccc2ccccc2c1 | 10 to 30 µM
c1ccc(CNc2ncc(-c3ccccc3)s2)cc1 | 1 to 5 µM
COC(=O)CN(Cc1ccccc1)Cc1ccc2ccccc2c1 | 10 to 20 µM
O=C(CC(Nc1ncc(-c2ccccc2)s1)c1ccccc1)c1ccccc1 (stereo not shown) | ≥ 50 µM
Clc1ccc(CNCc2ccc3ccccc3c2)cc1 | 50 to 80 µM
CCOC(=O)c1ccc(CN(CC#N)Cc2ccc3ccccc3c2)cc1 | 10 to 30 µM
N#CCN(Cc1ccccc1)Cc1ccc2ccccc2c1 | 3 to 8 µM
